Test: Apparent permeability in MDCK cells
Type: ADME, cell-based, Canis lupus familiaris
Settings: dog
Observed Property: Papp (×10⁻⁶ cm/s)
// units = ×10⁻⁶ cm/s; emit number, no label

Give the measured Papp for COc1ccccc1OC1CN(S(=O)(=O)c2ccc3c(c2)OCO3)C1
44

Please list Papp recorded for the compound COc1ccc(Cl)cc1OC1CN(S(=O)(=O)c2ccc3[nH]c(=O)oc3c2)C1
39

Read the entry CN1C(=O)[C@@H]2CN(S(=O)(=O)c3ccc4c(c3)OCO4)C[C@@H]2c2ccccc21 and write its reported Papp.
44

Provide one value: measured Papp of O=S(=O)(c1ccc2c(c1)OCO2)N1CC[C@@H](c2ccccc2F)C1
28

Data credit: ChEMBL document CHEMBL4251550
